Origin of values: paper PMC11587861

# SUBJECT_OF_TEST: T1, PepA-H6 (Escherichia coli, UniProt P68767 1-503)
# T1 sequence: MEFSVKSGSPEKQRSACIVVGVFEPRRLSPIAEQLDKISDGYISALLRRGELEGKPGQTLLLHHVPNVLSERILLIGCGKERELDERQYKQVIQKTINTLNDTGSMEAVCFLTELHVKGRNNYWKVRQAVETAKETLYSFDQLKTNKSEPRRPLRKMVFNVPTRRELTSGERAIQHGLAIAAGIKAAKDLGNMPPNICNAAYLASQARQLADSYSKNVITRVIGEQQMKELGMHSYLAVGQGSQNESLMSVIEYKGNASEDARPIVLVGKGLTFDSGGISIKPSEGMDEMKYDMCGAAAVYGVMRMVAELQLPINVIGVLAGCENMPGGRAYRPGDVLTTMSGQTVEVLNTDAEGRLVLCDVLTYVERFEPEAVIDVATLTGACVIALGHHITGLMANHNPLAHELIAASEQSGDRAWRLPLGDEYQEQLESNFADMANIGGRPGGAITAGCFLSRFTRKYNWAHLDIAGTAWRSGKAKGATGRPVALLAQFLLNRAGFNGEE
# ASSAY_EXPLANATION: filter binding; 75 mM Tris-HCl pH 7.5, 0.4 mM spermidine, 0.1 mM MgCl2, 50 mM NaCl, 0.5 mM EDTA, 0.25 mM DTT, 6% glycerol; 10 min at room temperature; 50 fmol RNA in 60 µL, protein 0-10 µM
# TEST_PARAMETERS: protein: recombinant; tags: C-terminal His6; chain copies: 6; label: 5'-32P (printed as [31]P); single strand
VALUE_TYPE: Kd (nM)
Give bare numbers, in nM.

Lookup result for AUGUGGAAAAUCUCUAGCAGU (ssRNA) [21 R+] ; measured Kd: 2000

Continue with the next binder.
Looking up CUGCUAGAGAUUUUCCACAU (ssRNA) [21 R-] , I found its Kd recorded as 600
